# experiment-description: qHTS of pediatric cancer cell lines to identify multiple opportunities for drug repurposing: Primary screen for TC32 cells (AID 1347089); further: nearly all actives have a fitted effect of over 60% in size
# reported-conditions: TC32 Ewing sarcoma viability, CellTiter-Glo luminescence, 48 h; series mostly up to 45.8 µM
Records with an inconclusive call do not appear. Active and inactive are the calls of the source. The call rests on the fitted dose curve; in most records, active means well fitted cell-killing curve with a large enough effect; inconclusive means small, poorly fitted or top-dose-only effect; inactive means flat fitted curve, though single readings scatter.
Write down one outcome, taken from YES = active, NO = inactive

Examples from the recorded data:
O=c1c(O)c(-c2ccc(O)cc2)oc2cc(O)cc(O)c12 : NO
CC(C)n1cnc2c(NCCCCCCNC(=O)OC(C)(C)C)nc(NCCO)nc21 : NO
O=C(O)CCC1CCC(c2cc(F)ccc2F)(S(=O)(=O)c2ccc(Cl)cc2)CC1 (stereo not given) : NO
O=C(O)CCc1nc(-c2ccccc2)c(-c2ccccc2)o1 : NO
CC(=NNC(=S)N1CCC1)c1ccccn1 : YES
CCC(=O)NC[C@H](Cc1ccc(OCCc2nc(-c3ccccc3)oc2C)cc1)NC(C)=CC(=O)c1ccc(C(F)(F)F)cc1 : NO
CC(C)(C)c1ccc(C(O)CCCN2CCC(C(O)(c3ccccc3)c3ccccc3)CC2)cc1 (stereo not given) : NO
Cc1nnc(C(C)C)n1C1C[C@H]2CC[C@@H](C1)N2CC[C@H](NC(=O)C1CCC(F)(F)CC1)c1ccccc1 (stereo not given in full) : NO
CN1CCN(CCOc2cc(OC3CCOCC3)c3c(Nc4c(Cl)ccc5c4OCO5)ncnc3c2)CC1 : NO
O=C1NCC2(CCN(CCc3ccccc3)CC2)O1 : NO

Please indicate how the test categorized `CN(C)C1CCN(C(=O)c2ccc(NC(=O)Nc3nc(N4CCOCC4)nc(N4CCOCC4)n3)cc2)CC1` .
YES

Try this compound too: `O=C(O)c1ccc(-c2c[nH]c3ncc(-c4ccccc4)cc23)cc1C1CCCC1`
NO

Try the compound `COC(=O)C1=CO[C@@H](O)[C@@H]2C(CO)=CC[C@@H]12`
NO

And for `COc1ccc2c(Oc3ccc(NC(=O)c4c(C)n(CC(C)(C)O)n(-c5ccccc5)c4=O)nc3)ccnc2c1` ?
NO

Also need `O=C1NC(=O)C(=Cc2ccc(-c3ccc(F)cc3)o2)S1` , thanks.
NO

Here is the next compound: `CC(C)OC(=O)C(C)(C)Oc1ccc(C(=O)c2ccc(Cl)cc2)cc1`
NO

Field entry: `CON=C(C(=O)N[C@@H]1C(=O)N2C(C(=O)OCOC(=O)C(C)(C)C)=C(C=Cc3scnc3C)CS[C@H]12)c1csc(N)n1`
NO
